# target_of_assay: T1, human DLL3-his protein (human, UniProt Q9NYJ7 27-492)
# T1 construct: also called human DLL3 protein; DLL3 antigen protein; not shown: His tag
# T1 sequence: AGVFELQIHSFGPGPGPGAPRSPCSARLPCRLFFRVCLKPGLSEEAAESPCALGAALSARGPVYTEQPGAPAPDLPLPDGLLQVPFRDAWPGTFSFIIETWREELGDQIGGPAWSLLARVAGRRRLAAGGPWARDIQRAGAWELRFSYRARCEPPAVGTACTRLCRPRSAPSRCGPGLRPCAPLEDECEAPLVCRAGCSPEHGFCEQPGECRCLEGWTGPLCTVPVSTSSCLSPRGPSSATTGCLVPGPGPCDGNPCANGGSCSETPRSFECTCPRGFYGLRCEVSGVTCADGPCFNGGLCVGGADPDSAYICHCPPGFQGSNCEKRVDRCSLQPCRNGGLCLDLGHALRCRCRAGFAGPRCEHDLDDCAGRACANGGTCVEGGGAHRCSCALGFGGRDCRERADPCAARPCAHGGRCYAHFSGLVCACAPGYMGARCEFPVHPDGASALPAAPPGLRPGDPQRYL
# assay_notes: ELISA
measured_metric: binding result

binder	reported_value
Hab006VL4VH1-hFc (Fc fusion, humanized mab006, VL-linker-VH-human IgG1 Fc; also called Hab006VL4VL1-hFc; not shown: linker; human IgG1 Fc fragment) scFv (part 1 of 2): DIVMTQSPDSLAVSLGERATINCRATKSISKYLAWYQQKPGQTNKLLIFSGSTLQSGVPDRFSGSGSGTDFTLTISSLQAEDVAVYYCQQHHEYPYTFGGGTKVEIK scFv (part 2 of 2): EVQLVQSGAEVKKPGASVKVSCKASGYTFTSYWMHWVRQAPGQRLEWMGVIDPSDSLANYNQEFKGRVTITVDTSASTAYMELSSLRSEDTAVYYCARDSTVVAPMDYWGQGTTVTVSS	binds
Hab015VL5VH6a-hFc (Fc fusion, humanized mab015, VL-linker-VH-human IgG1 Fc; also called Hab015L5H6a; not shown: linker; human IgG1 Fc fragment) scFv (part 1 of 2): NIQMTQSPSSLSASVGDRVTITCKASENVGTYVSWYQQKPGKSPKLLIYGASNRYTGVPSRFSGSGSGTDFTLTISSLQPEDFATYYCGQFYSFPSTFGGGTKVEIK scFv (part 2 of 2): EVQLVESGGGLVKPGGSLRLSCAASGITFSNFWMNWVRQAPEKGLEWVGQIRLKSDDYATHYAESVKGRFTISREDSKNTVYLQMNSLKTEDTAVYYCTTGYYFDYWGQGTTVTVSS	binds
